Test system: U251 CNS
Assay: NCI-60 one-dose screen, 48 h
Conditions: 10 µM
The panel holds about 83,000 compounds, 20% with a hit somewhere; the sample as a whole holds those more often. Calls of active or inactive are those of the source. Rule for the calls: active = growth percent below 10; inactive = the rest.
Labels: active, inactive

MOLECULE: CN(C(=O)c1ccc(C(F)(F)F)cc1C(F)(F)F)c1sc2c(c1C#N)CCC(=O)C2
ASSIGNED CATEGORY: active
--
MOLECULE: C/C(=N\NC(N)=S)c1ccc(Nc2nc(SC(C)C)nc(-c3ccccc3)c2C#N)cc1
ASSIGNED CATEGORY: inactive
--
MOLECULE: Cc1ccc(NCC(=O)Nn2c(COc3ccccc3)nc3ccccc3c2=O)cc1
ASSIGNED CATEGORY: inactive
--
MOLECULE: O=c1oc2ccc(-c3ccc(F)cc3F)cc2c(=O)n1-c1ccc(F)c(Cl)c1
ASSIGNED CATEGORY: active
--
MOLECULE: C=CC(=O)Nc1ccc(C(=O)/C=C/c2ccc(N(C)CCF)cc2)c(O)c1
ASSIGNED CATEGORY: active
--
MOLECULE: COc1cc(Cn2c(C(F)(F)F)cc3c(Cl)ncnc32)ccn1
ASSIGNED CATEGORY: inactive
--
MOLECULE: Cc1nc2c(cnn2-c2ccccc2)c(=O)n1-c1ccc(NC(=O)c2ccc(F)cc2)cc1
ASSIGNED CATEGORY: inactive
--
MOLECULE: CC(C)C(=O)Nc1ccc(C(=O)NC(=S)Nc2ccc(C(=O)O)cc2)cc1
ASSIGNED CATEGORY: inactive
--
MOLECULE: C=C(C)[C@@H]1CC[C@]2(COP(=O)(OCC)OCC)CC[C@]3(C)[C@H](CC[C@@H]4[C@@](C)(CCCN)[C@H](C(=C)C)CC[C@]43C)[C@@H]12
ASSIGNED CATEGORY: inactive
--
MOLECULE: CCCn1c(=O)c2[nH]c(-c3ccc(OCc4nc5ccccc5[nH]4)cc3)nc2n(CCC)c1=O
ASSIGNED CATEGORY: active
--
MOLECULE: COc1ccc(-c2nc(S(=O)(=O)c3ccccc3)c(S(C)(=O)=O)o2)cc1
ASSIGNED CATEGORY: inactive
--
MOLECULE: COc1ccc(/C=C/C(=O)c2ccc(N3CCN(C)CC3)cc2)c(C(F)(F)F)c1
ASSIGNED CATEGORY: active
--
MOLECULE: COc1cnc2c(c1)C(=O)c1c-2n(CCCNC(C)C)c(=O)c2cc(OC)c(OC)cc12
ASSIGNED CATEGORY: inactive
--
MOLECULE: Nc1nnc(-c2c[nH]c3ncccc23)c(-c2c[nH]c3ccc(Br)cc23)n1
ASSIGNED CATEGORY: inactive
--
MOLECULE: O=C(Nc1ccc(Cl)c([N+](=O)[O-])c1)Nc1ccc(Cl)c([N+](=O)[O-])c1
ASSIGNED CATEGORY: inactive
--
MOLECULE: O=C1NC(=NC2CCCCCC2)N/C1=C\c1ccc2ncoc2c1
ASSIGNED CATEGORY: inactive
--
MOLECULE: O=C(Nc1ccc(OCC(=O)c2ccccc2)cc1)Nc1ccc(Cl)c(C(F)(F)F)c1
ASSIGNED CATEGORY: inactive
--
MOLECULE: COc1ccccc1[C@H]1C(C(=O)c2ccc(Cl)cc2)C2(N[C@@H]1c1ccccc1)C(=O)Nc1ccccc12 (stereo partly drawn)
ASSIGNED CATEGORY: active
--
MOLECULE: O=C(N/N=C/c1ccc(-c2cccc([N+](=O)[O-])c2)o1)c1[nH]c2ccc(Br)cc2c1-c1ccccc1
ASSIGNED CATEGORY: active
--
MOLECULE: CCOC(=O)c1c(CSc2ccccc2)n(C)c2cc(CN(C)C)c(O)c(CN(C)C)c12
ASSIGNED CATEGORY: inactive
--
MOLECULE: O=C(c1ccc(Cl)cc1)C1[C@H](c2ccc(Br)cc2)[C@@H](c2ccccc2)NC12C(=O)Nc1ccc(Cl)cc12 (stereo partly drawn)
ASSIGNED CATEGORY: active
--
MOLECULE: CN(C)c1cccc2c(S(=O)(=O)Nc3cccc(-c4csc(NC(=O)CCCCCN5CCN(c6cc7c(cc6F)C(=O)N(C6CCC(=O)NC6=O)C7=O)CC5)n4)c3)cccc12 (stereo not drawn)
ASSIGNED CATEGORY: inactive
--
MOLECULE: COc1ccc(NC(=O)CSc2nnc(-c3ccc4nc(-c5ccc(Cl)cc5)[nH]c4c3)o2)cc1
ASSIGNED CATEGORY: active
--
MOLECULE: CO[C@@H]1CSSC1Cn1nc(-c2ccc(Oc3ccccc3)cc2)c2c(N)ncnc21 (stereo partly drawn)
ASSIGNED CATEGORY: inactive
--
MOLECULE: CN(C)c1ccc(/C=C/c2nc3ccccc3c(=O)n2CC(=O)Nc2ccc(Cl)cc2)cc1
ASSIGNED CATEGORY: inactive
--
MOLECULE: COc1ccc(C=CC(=O)c2ccc(-n3c(C)nc4c(cnn4-c4ccccc4)c3=O)cc2)cc1
ASSIGNED CATEGORY: inactive
--
MOLECULE: COc1ccc2c(c1)N=C(C(=O)O)/C2=C/c1sc(Nc2ccc(O)cc2)nc1O
ASSIGNED CATEGORY: inactive
--
MOLECULE: Cc1ccn2c(C(=O)c3ccccc3)cc(-c3cc(-c4ccc(N(C)C)cc4)c(C#N)c(N)n3)c2c1
ASSIGNED CATEGORY: inactive
